MEASURED_ON: human NAMPT (Homo sapiens (Human))
Sequence (P43490 whole entry): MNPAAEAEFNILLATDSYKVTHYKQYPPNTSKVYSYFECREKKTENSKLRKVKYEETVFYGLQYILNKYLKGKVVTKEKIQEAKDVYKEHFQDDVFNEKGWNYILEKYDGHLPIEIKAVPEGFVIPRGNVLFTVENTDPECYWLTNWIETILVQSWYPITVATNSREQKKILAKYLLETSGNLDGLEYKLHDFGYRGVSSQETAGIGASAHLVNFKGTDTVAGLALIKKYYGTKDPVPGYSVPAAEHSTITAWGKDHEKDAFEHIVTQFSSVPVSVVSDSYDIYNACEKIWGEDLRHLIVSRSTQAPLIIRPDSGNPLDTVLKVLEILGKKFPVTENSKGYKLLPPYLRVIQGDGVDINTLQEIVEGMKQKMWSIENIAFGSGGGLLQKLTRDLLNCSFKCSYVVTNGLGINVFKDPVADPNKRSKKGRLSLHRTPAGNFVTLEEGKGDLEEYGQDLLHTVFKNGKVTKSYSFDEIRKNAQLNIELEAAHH
ASSAY: NMN fluorescence biochemical assay (human recombinant NAMPT enzyme assay)
OUTCOME_MEASURE: pEC50
Scale note: pEC50 = -log10(concentration in M).

Problem: Reported pEC50, compound O=C(Nc1ccc(C2CCN(S(=O)(=O)N3CCC3)CC2)cc1)OCc1cnco1 : ____
Solution: 5.53

* * *

System: P-gp (MDR1)
ASSAY: MDR1-MDCK bidirectional permeability assay
PROTOCOL_CONDITIONS: dog, MDCK-MDR1, pH 7.4, Efflux ratio
Examples of compounds with documented efflux ratio at 120 min, 1 μM follow.
No unit in the answer, please; the number alone is enough.

Answered examples (3):
{"columns": ["COMPOUND", "RECORDED_RESULT"],
 "data": [
  ["CN(C)C(=O)N1CCC(Cc2ccc(NC(=O)OCc3cnco3)cc2F)CC1", 5.74],
  ["O=C(Nc1ccc(COC2CCN(C3COC3)CC2)cc1)OCc1ccc(Cl)cc1", 1.5],
  ["O=C(Nc1ccc(CC2CCN(CC(F)(F)F)CC2)cc1)OCc1cnco1", 1.04]
]}

Consider now this further compound.
Problem: Field request: efflux ratio at 120 min, 1 μM | item: O=C(NCc1ccc(Cl)cc1)Nc1ccc(CC2CCN(C3COC3)CC2)cc1 [Comparator 1, reference compound]
Solution: 14.7
